src = patent US20020026053A1

- SYSTEM NAME: EGFR (Homo sapiens, UniProt P00533)
- Construct: endogenous in cells; host or cells: A431 cells (lysate, captured with SUMO1 anti-EGFR antibody)
- Sequence (P00533 25-1210): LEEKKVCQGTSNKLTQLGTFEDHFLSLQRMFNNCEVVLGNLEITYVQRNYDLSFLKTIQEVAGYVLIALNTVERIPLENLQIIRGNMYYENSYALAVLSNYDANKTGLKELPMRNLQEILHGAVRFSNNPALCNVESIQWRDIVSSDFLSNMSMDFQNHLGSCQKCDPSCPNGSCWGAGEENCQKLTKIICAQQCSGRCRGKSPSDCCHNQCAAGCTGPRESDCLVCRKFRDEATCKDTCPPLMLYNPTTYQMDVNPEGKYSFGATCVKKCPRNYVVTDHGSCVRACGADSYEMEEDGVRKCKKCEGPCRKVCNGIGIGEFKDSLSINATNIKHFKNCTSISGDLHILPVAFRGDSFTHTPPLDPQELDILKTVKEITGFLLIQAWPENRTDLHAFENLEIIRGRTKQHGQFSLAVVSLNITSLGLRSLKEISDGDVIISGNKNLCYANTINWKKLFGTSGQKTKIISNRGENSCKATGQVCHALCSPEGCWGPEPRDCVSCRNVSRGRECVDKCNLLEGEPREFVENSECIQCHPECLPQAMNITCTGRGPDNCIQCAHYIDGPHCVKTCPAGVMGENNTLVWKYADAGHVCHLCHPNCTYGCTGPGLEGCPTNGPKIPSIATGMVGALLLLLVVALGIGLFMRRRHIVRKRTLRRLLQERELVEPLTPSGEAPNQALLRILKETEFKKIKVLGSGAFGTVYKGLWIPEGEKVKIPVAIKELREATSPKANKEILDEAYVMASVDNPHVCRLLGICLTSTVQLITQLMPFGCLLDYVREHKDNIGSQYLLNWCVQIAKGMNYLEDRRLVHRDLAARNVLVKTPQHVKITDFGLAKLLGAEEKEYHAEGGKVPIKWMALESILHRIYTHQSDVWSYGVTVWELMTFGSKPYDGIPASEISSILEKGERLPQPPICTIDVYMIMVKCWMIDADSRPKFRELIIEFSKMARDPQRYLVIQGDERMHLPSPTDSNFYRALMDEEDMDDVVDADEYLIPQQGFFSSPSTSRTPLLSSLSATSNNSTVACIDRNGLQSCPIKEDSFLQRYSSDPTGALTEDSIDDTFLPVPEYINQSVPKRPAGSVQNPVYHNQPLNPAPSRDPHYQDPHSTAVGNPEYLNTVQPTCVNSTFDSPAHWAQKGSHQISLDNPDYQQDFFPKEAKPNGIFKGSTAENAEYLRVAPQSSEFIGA
- ASSAY NAME: Biochemical EGFR Assay
- Design: concentration or dose not given beside the values
ENDPOINT: Biochem EGFR % Inhibition (P.167) (%)
Give the quantity in %, number only.

Use the examples below as a reference point.
Entry Cc1c(Br)cc(Br)c2c1C(=Cc1ccc(N3CCCC3)cc1)C(=O)N2 , Biochem EGFR % Inhibition (P.167) reported as 2.1

Entry Cc1cccc(C=C2C(=O)Nc3c(Br)cc(Br)cc32)c1 , Biochem EGFR % Inhibition (P.167) reported as 14.1

Entry Cc1c(Br)cc(Br)c2c1C(=Cc1cc(F)cc(F)c1)C(=O)N2 , Biochem EGFR % Inhibition (P.167) reported as −9.3

Entry N#Cc1ccccc1C=C1C(=O)Nc2c(Br)cc(Br)cc21 , Biochem EGFR % Inhibition (P.167) reported as 18.7

Next:
Entry O=C1Nc2ccc(S(=O)(=O)N3CCOCC3)cc2C1=Cc1cccc(F)c1 , Biochem EGFR % Inhibition (P.167) reported as −12.1

---

As shown below, each of these molecules has a reported Met Kinase % Inhibition (P.130) value.
- SYSTEM NAME: Met receptor (EGFR/Met chimeric cells, EMR) (Homo sapiens, UniProt P08581)
- Construct: expressed in transfected cells; the other entry of the earlier key: EGFR (P00533, Epidermal growth factor receptor)
- Sequence (P08581 with tags, fused parts or gaps): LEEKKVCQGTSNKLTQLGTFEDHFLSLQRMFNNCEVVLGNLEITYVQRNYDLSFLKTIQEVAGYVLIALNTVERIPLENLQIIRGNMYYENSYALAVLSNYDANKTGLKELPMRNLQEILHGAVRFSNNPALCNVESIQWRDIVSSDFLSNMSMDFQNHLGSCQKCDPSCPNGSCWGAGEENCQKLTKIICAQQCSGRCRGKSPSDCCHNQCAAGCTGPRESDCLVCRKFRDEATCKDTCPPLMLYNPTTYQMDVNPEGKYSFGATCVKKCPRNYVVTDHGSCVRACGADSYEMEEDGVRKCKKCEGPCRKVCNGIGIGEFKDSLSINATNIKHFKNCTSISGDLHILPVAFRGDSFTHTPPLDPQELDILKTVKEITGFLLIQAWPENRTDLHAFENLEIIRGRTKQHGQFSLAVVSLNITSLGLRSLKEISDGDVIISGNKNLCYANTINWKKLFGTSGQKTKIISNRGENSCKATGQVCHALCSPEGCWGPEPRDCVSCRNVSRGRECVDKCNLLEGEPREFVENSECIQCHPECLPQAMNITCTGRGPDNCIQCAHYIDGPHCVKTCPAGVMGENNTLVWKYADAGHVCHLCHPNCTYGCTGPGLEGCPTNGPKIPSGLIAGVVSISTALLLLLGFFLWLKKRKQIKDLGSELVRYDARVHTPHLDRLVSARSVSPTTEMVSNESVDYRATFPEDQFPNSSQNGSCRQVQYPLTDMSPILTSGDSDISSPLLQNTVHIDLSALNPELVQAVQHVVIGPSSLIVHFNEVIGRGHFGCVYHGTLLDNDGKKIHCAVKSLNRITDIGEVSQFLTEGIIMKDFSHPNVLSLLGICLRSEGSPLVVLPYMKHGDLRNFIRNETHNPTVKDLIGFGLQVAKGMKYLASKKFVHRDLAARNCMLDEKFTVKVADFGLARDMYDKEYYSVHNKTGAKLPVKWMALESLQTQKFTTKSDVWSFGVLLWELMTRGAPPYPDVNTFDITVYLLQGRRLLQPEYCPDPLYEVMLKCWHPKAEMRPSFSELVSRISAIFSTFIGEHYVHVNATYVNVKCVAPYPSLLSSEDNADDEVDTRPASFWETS
- ASSAY NAME: Met Autophosphorylation Assay
- Type: biochemical

Entry O=C1Nc2ccc(S(=O)(=O)Nc3ccc(C(F)(F)F)cc3)cc2C1=Cc1ccc([N+](=O)[O-])cc1 , Met Kinase % Inhibition (P.130) reported as 50.6%

Entry Cc1c(Br)cc(Br)c2c1C(=Cc1ccc(Br)o1)C(=O)N2 , Met Kinase % Inhibition (P.130) reported as 80.2%

Entry Cc1c(Br)ccc2c1C(=Cc1ccccc1C(F)(F)F)C(=O)N2 , Met Kinase % Inhibition (P.130) reported as 9.9%

Entry O=C1Nc2ccc(CCCl)cc2C1=Cc1ccc(F)c(F)c1 , Met Kinase % Inhibition (P.130) reported as 24.3%

Entry Cc1c(Br)cc(Br)c2c1C(=Cc1cc(Cl)cc(Br)c1O)C(=O)N2 , Met Kinase % Inhibition (P.130) reported as 81.7%

Entry Cc1c(Br)cc(Br)c2c1C(=Cc1cc3c([nH]1)CCCC3)C(=O)N2 , Met Kinase % Inhibition (P.130) reported as 33.6%

Entry COc1cc(OC)c(C=C2C(=O)Nc3c(Br)cc(Br)c(C)c32)c(OC)c1 , Met Kinase % Inhibition (P.130) reported as 1.3%

Entry Cc1ccc(C=C2C(=O)Nc3ccc(I)cc32)cc1 , Met Kinase % Inhibition (P.130) reported as 63.9%

Next:
Entry Cc1c(Br)cc(Br)c2c1C(=Cc1ccccc1[N+](=O)[O-])C(=O)N2 , Met Kinase % Inhibition (P.130) reported as 66.6%

Entry O=C1Nc2ccc(I)cc2C1=Cc1ccc(Cl)cc1 , Met Kinase % Inhibition (P.130) reported as 73.6%

---

As shown below, each of these compounds has a reported Met Kinase % Inhibition (P.130) value.
- SYSTEM NAME: Met receptor (EGFR/Met chimeric cells, EMR) (Homo sapiens, UniProt P08581)
- Construct: expressed in transfected cells; the other entry of the earlier key: EGFR (P00533, Epidermal growth factor receptor)
- ASSAY NAME: Met Autophosphorylation Assay
- Assay type: biochemical
Give the quantity in %, number only.

Use the examples below as a reference point.
Entry Cc1c(Br)cc(Br)c2c1C(=Cc1ccc(Cl)cc1Cl)C(=O)N2 , Met Kinase % Inhibition (P.130) reported as 29.9

Entry CC(C)(C)c1ccc(C=C2C(=O)Nc3c(Br)cc(Br)cc32)cc1 , Met Kinase % Inhibition (P.130) reported as 55.4

Entry O=C1Nc2ccc(S(=O)(=O)N3CCOCC3)cc2C1=Cc1ccccc1Cl , Met Kinase % Inhibition (P.130) reported as 25.2

Entry Cc1c(Br)cc(Br)c2c1C(=Cc1ccc(C#N)cc1)C(=O)N2 , Met Kinase % Inhibition (P.130) reported as 31.1

Entry COc1ccc(C=C2C(=O)Nc3c(Br)cc(Br)c(C)c32)c(OC)c1OC , Met Kinase % Inhibition (P.130) reported as 32.0

Entry O=C1Nc2ccc(S(=O)(=O)Nc3ccc(C(F)(F)F)cc3)cc2C1=Cc1cccc(C(F)(F)F)c1 , Met Kinase % Inhibition (P.130) reported as 74.8

Entry O=C1Nc2ccc(S(=O)(=O)Nc3ccc(C(F)(F)F)cc3)cc2C1=Cc1c(F)cccc1F , Met Kinase % Inhibition (P.130) reported as 35.7

Entry CCN(CC)c1ccc(C=C2C(=O)Nc3c(Br)cc(Br)c(C)c32)cc1 , Met Kinase % Inhibition (P.130) reported as 55.5

Next:
Entry Cc1c(Br)cc(Br)c2c1C(=Cc1cccc(C#N)c1)C(=O)N2 , Met Kinase % Inhibition (P.130) reported as 12.3

Entry O=C1Nc2ccc(S(=O)(=O)Nc3ccc(C(F)(F)F)cc3)cc2C1=Cc1cc(F)cc(F)c1 , Met Kinase % Inhibition (P.130) reported as 85.2

Entry O=C1Nc2ccc(I)cc2C1=Cc1ccc(Br)s1 , Met Kinase % Inhibition (P.130) reported as 83.6

Entry Cc1c(Br)cc(Br)c2c1C(=Cc1ccc(N3CCOCC3)cc1)C(=O)N2 , Met Kinase % Inhibition (P.130) reported as 5.7

Entry CNS(=O)(=O)c1ccc2c(c1)C(=Cc1cccc(OC)c1)C(=O)N2 , Met Kinase % Inhibition (P.130) reported as 16.9

Entry N#Cc1ccccc1C=C1C(=O)Nc2ccc(CCCl)cc21 , Met Kinase % Inhibition (P.130) reported as 37.1

Entry Cc1cn(C)cc1C=C1C(=O)Nc2c(Br)cc(Br)c(C)c21 , Met Kinase % Inhibition (P.130) reported as 35.1
